The measured values listed here are drawn from ChEMBL document CHEMBL5620428.

- assay explanation: Metabolic stability in human liver microsome assessed as half life measured upto 4 hrs in presence of NADPH by LC-MS/MS analysis
- Format: ADME
- assay setup: liver microsomes
measurement kind: half-life (h)

COc1ccc2c(ccn2C[C@H](O)CN2CCc3ccccc3C2)c1 2.21

(a) O=C(NC[C@H](O)CN1CCc2ccccc2C1)c1ccc2c(c1)CCN(C(=O)c1ccc(Br)cc1)C2
(b) Oc1ccc2c(c1)CCN(C[C@@H](O)Cn1ccc3ccc(Br)cc31)C2
Among a and b , which shows a numerically higher half-life result? Write down the label of the entry you select.
a
(a: 1.45 h, b: 0.363 h)

----------
- assay explanation: Half life in Sprague-Dawley rat at 10 mg/kg, po measured upto 24 hrs by LC-MS/MS analysis
- Format: ADME, organism-based
- assay setup: in vivo
measurement kind: half-life (h)

(1) COc1ccc2c(ccn2C[C@H](O)CN2CCc3ccccc3C2)c1
(2) O=C(NC[C@H](O)CN1CCc2ccccc2C1)c1ccc2c(c1)CCN(C(=O)c1ccc(Br)cc1)C2
Among 1 and 2 , which shows a numerically higher half-life result? Write down the label of the entry you select.
1
(1: 6.7 h, 2: 2.31 h)
